Test system: MDA-MB-435
Assay: NCI tumour cell line growth inhibition, 48 h
The source made the active and inactive calls. Rule as the data show it: active = GI50 up to about 1.1 µM and inactive = higher.
Outcomes: active, inactive

{"COMPOUND": "Cn1c(-c2ccccc2)cc(-c2cccs2)c1-c1ccsc1", "QUALITATIVE_LABEL": "inactive"}
{"COMPOUND": "COC(=O)C1CCC(=O)N1C(c1ccc(OC)cc1)c1cc(OC)c(OC)c(OC)c1 (stereo unspecified)", "QUALITATIVE_LABEL": "active"}
{"COMPOUND": "OC(CN(CCCl)CCCl)C(O)C(O)C(O)CN(CCCl)CCCl (stereo unspecified)", "QUALITATIVE_LABEL": "inactive"}
{"COMPOUND": "O=C(O)/C=C/c1ccc(OS(=O)(=O)O)cc1", "QUALITATIVE_LABEL": "inactive"}
{"COMPOUND": "CCOc1cccc(-c2cc(O)c3cc4c(cc3n2)OCO4)c1", "QUALITATIVE_LABEL": "active"}
{"COMPOUND": "C1=N\\c2ccc(cc2)-c2ccc(cc2)/N=C\\c2ccc(cc2)OCc2cccc(n2)COc2ccc/1cc2", "QUALITATIVE_LABEL": "inactive"}
{"COMPOUND": "CN(C)CCCNC(=O)c1cc(NC(=O)c2cc(NC(=O)CCCn3c4ccccc4c4ccccc43)cn2C)cn1C", "QUALITATIVE_LABEL": "inactive"}
{"COMPOUND": "CC1OC(OC2C(CO)OC(O[C@H]3CC[C@@]4(C)C(=CC[C@H]5[C@@H]6C[C@@H]7O[C@](O)(CC[C@@H](C)COC8OC(CO)C(O)C(O)C8O)[C@@H](C)[C@@H]7[C@@]6(C)CC[C@@H]54)C3)C(OC3OC(C)C(O)C(O)C3O)C2O)C(O)C(O)C1O (stereo partly specified)", "QUALITATIVE_LABEL": "inactive"}
{"COMPOUND": "NC(CC(=O)OCc1ccccc1)C(=O)OCc1ccccc1 (stereo unspecified)", "QUALITATIVE_LABEL": "inactive"}
{"COMPOUND": "OCCN1CCN(c2nc(N3CCCC3)c3nc(Cl)c(NCc4ccccc4)nc3n2)CC1", "QUALITATIVE_LABEL": "inactive"}
{"COMPOUND": "CN(C)CCNc1c([N+](=O)[O-])sc2ccc(Cl)cc12", "QUALITATIVE_LABEL": "inactive"}
{"COMPOUND": "COC(=O)[C@]1(C)CCC[C@@]2(C)[C@@H]3C[C@@H]4[C@H]5C[C@@]3(CC[C@@H]21)C[C@@]45C", "QUALITATIVE_LABEL": "inactive"}
{"COMPOUND": "O=C(CN1CCN(Cc2ccccc2)CC1)N1CCCn2c1nc1ccccc1c2=O", "QUALITATIVE_LABEL": "inactive"}
{"COMPOUND": "O=C1/C(=C/c2ccc(Cl)cc2)CCC/C1=C\\c1ccc(O)c(CN2CCCCC2)c1", "QUALITATIVE_LABEL": "inactive"}
{"COMPOUND": "CCOC(=O)NC(Nc1ccc(C(=O)O)cc1)(C(F)(F)F)C(F)(F)F", "QUALITATIVE_LABEL": "inactive"}
{"COMPOUND": "Cc1cc(O)c2c(c1O)C(=O)C1=C(C2=O)C(=O)C2C(O)C1C1C(O)CC(O)=C3C(=O)c4c(O)cc(C)c(O)c4C(=O)C321 (stereo unspecified)", "QUALITATIVE_LABEL": "inactive"}
{"COMPOUND": "CC(=O)C(=NNc1ccc(-n2c(C)nc3ccccc3c2=O)cc1)C(C)=O", "QUALITATIVE_LABEL": "inactive"}
{"COMPOUND": "CC1(C)O[C@H]2OC(CO[Si](C)(C)C(C)(C)C)C(N=[N+]=[N-])[C@H]2O1 (stereo partly specified)", "QUALITATIVE_LABEL": "inactive"}
{"COMPOUND": "O=C(/C=C/c1ccccc1)CCc1c(O)c2ccccc2oc1=O", "QUALITATIVE_LABEL": "inactive"}
{"COMPOUND": "CC1(C)C[C@@H]2C1CCC1(C)CC2(O)CC[C@H]1O (stereo partly specified)", "QUALITATIVE_LABEL": "inactive"}
{"COMPOUND": "O=[N+]([O-])c1cccc(Cl)c1Oc1ccc(S(=O)(=O)N/C(=N\\O)Nc2ccc(Cl)cc2)cc1", "QUALITATIVE_LABEL": "inactive"}
{"COMPOUND": "CC(C)=CC(Cc1ccccc1)S(=O)(=O)c1nc2ccccc2s1 (stereo unspecified)", "QUALITATIVE_LABEL": "inactive"}
{"COMPOUND": "COCN1C(=O)[C@@H]2CCCN2C(=O)c2ccc(N)cc21", "QUALITATIVE_LABEL": "inactive"}
{"COMPOUND": "O=C(O)c1[nH]c2c([N+](=O)[O-])cc([N+](=O)[O-])cc2c1C(=O)O", "QUALITATIVE_LABEL": "inactive"}
{"COMPOUND": "COCC(=O)[C@]1(O)Cc2c(O)c3c(c(O)c2[C@@H](OC2CC(N)C(O)C(C)O2)C1)C(=O)c1c(OC)cccc1C3=O (stereo partly specified)", "QUALITATIVE_LABEL": "active"}
{"COMPOUND": "O=C1OCC2OC(=O)c3cc(O)c(O)c(O)c3-c3c(O)c(O)c(O)c4c3C(=O)OC(C2OC(=O)c2cc(O)c(O)c(O)c2-c2c1cc(O)c(O)c2O)C1OC(=O)c2c-4c(O)c(O)c(O)c2[C@@H]1C(O)C(O)C(O)C(O)CO (stereo partly specified)", "QUALITATIVE_LABEL": "inactive"}
{"COMPOUND": "O=c1[nH]ncc2[nH]c3c(c12)CCCc1ccccc1-3", "QUALITATIVE_LABEL": "inactive"}
{"COMPOUND": "CN(C)/C=N/S(=O)(=O)c1nn2c(C=O)c(-c3cc4ccccc4oc3=O)nc2s1", "QUALITATIVE_LABEL": "inactive"}
{"COMPOUND": "Cc1cc(C)nc(NS(=O)(=O)c2ccc(NC(=O)c3cccc4c(NNc5ccc(S(=O)(=O)N=C(N)N)cc5)c5ccccc5nc34)cc2)n1", "QUALITATIVE_LABEL": "inactive"}
{"COMPOUND": "CCOC(=O)C1(C(=O)OCC)C=C(c2ccccc2)N(C2OC(COC(C)=O)C(OC(C)=O)C(OC(C)=O)C2OC(C)=O)C1=S (stereo unspecified)", "QUALITATIVE_LABEL": "inactive"}
{"COMPOUND": "O=NN1CCNC1Cc1ccccc1 (stereo unspecified)", "QUALITATIVE_LABEL": "inactive"}
{"COMPOUND": "Cc1ccsc1/C=N/Nc1ccc2ccccc2n1", "QUALITATIVE_LABEL": "inactive"}
{"COMPOUND": "N#CC12C(=O)N3C(=NC(c4ccco4)NC3c3ccco3)C1(C#N)C(c1ccco1)NC1=C2CCCC1 (stereo unspecified)", "QUALITATIVE_LABEL": "inactive"}
{"COMPOUND": "CC(C)(C)C1CCC(=O)/C(=C/CC2CC(=O)N(c3ccccc3)C(=O)C2)C1 (stereo unspecified)", "QUALITATIVE_LABEL": "inactive"}
{"COMPOUND": "C[n+]1cccc(/C=C/c2ccc3cccc(O)c3n2)c1", "QUALITATIVE_LABEL": "inactive"}
{"COMPOUND": "CCOC(=O)c1ccc(NC(=O)O/N=C(/Cl)C(C)C)cc1", "QUALITATIVE_LABEL": "inactive"}
